Test system: human ovarian carcinoma NR− line (SKOV3), wild-type
Test: Cytotoxicity, 18 h drug exposure, SKOV3 NR− line
Format: cell-based
Details: Homo sapiens, SK-OV-3; SKOV3 cells, 18 h drug exposure; read-out: SKOV NR− IC50
Each item that follows carries a reported pIC50.
In simple prose, pIC50 is minus the logarithm base ten of a concentration in moles per litre.

// known answers, use as guide
NC(=O)c1cc([N+](=O)[O-])cc([N+](=O)[O-])c1N1CC1 [Compound 14, 2-(aziridin-1-yl)-3,5-dinitrobenzamide] ... 2.77
O=C(NCCn1ccnc1)c1cc(N2CC2)c([N+](=O)[O-])cc1[N+](=O)[O-] ... 4.21
NC(=O)c1ccc([N+](=O)[O-])c(N2CC2)c1 [Compound 9, 3-(aziridin-1-yl)-4-nitrobenzamide] ... 4.03

Sure, the documented pIC50 for O=C(NCC(O)CO)c1cc(N2CC2)c([N+](=O)[O-])cc1[N+](=O)[O-] (stereo not shown) is 3.77

Sure, the documented pIC50 for NC(=O)c1c([N+](=O)[O-])ccc(N2CC2)c1[N+](=O)[O-] [Compound 13, 3-(aziridin-1-yl)-2,6-dinitrobenzamide] is 3.23

Sure, the documented pIC50 for CS(=O)(=O)c1cc([N+](=O)[O-])c(N2CC2)cc1C(=O)NCC(O)CO (stereo not shown) is 3.04

Sure, the documented pIC50 for NC(=O)c1cc(N2CC2)ccc1[N+](=O)[O-] [Compound 11, 5-(aziridin-1-yl)-2-nitrobenzamide] is 3.89

Sure, the documented pIC50 for O=C(NCC(O)CO)c1cc([N+](=O)[O-])cc([N+](=O)[O-])c1N1CC1 (stereo not shown) is 2.89

Sure, the documented pIC50 for "CS(=O)(=O)c1cc([N+](=O)[O-])c(C(N)=O)cc1N1CC1" is 3.41
